Data credit: ChEMBL document CHEMBL1255388

Measured EC50, listed per entry for reference.
# Tested on: Plasmodium falciparum
# assayRemarks: Antimicrobial activity against chloroquine-sensitive Plasmodium falciparum 3D7 after 48 hrs
# Format: functional, organism-based
# testParameters: 3D7, 48 h
Give a bare numeral; the unit nM is implied.

These solved cases illustrate the format of a correct answer.
> print(dat)
                                   molecule  readoutlabel   u  resultnumber
1  Cc1cccc(C)c1OCC(=O)N[C@@H](Cc1ccccc1)[C@@H](O)C[C@H](Cc1ccccc1)NC(=O)[C@H](C(C)C)N1CCCNC1=O [LOPINAVIR]          EC50  nM          2000
2  CCN(CC)CCCC(C)Nc1ccnc2cc(Cl)ccc12 (stereo not given) [CHLOROQUINE]          EC50  nM            25

Query CC(C)(C)NC(=O)[C@@H]1C[C@@H]2CCCC[C@@H]2CN1C[C@@H](O)[C@H](Cc1ccccc1)NC(=O)[C@H](CC(N)=O)NC(=O)c1ccc2ccccc2n1 yields EC50 of 3000

Query CCC[C@@]1(CCc2ccccc2)CC(O)=C([C@H](CC)c2cccc(NS(=O)(=O)c3ccc(C(F)(F)F)cn3)c2)C(=O)O1 yields EC50 of 20000

Query CC(C)c1nc(CN(C)C(=O)N[C@H](C(=O)N[C@@H](Cc2ccccc2)C[C@H](O)[C@H](Cc2ccccc2)NC(=O)OCc2cncs2)C(C)C)cs1 [RITONAVIR] yields EC50 of 3000

====

# Test system: Plasmodium falciparum
# assayRemarks: Antimicrobial activity against Plasmodium falciparum harboring […]-tagged Pfs16 protein after 48 hrs
# Format: functional, organism-based
readoutLabel: pEC50
When answering, recall that pEC50 equals minus log10 of the concentration in mol/L, and write that number alone.

> print(dat)
                                   molecule          subjectoftest  readoutlabel  resultnumber
1  CC(C)c1nc(CN(C)C(=O)N[C@H](C(=O)N[C@@H](Cc2ccccc2)C[C@H](O)[C@H](Cc2ccccc2)NC(=O)OCc2cncs2)C(C)C)cs1  Plasmodium falciparum         pEC50          5.30

Query CC(C)(C)NC(=O)[C@@H]1C[C@@H]2CCCC[C@@H]2CN1C[C@@H](O)[C@H](Cc1ccccc1)NC(=O)[C@H](CC(N)=O)NC(=O)c1ccc2ccccc2n1 yields pEC50 of 5.30

====

# Tested on: Plasmodium falciparum
# assayRemarks: Antimicrobial activity against chloroquine-sensitive Plasmodium falciparum D10 after 48 hrs
# Type: functional, organism-based
# testParameters: D10, 48 h
Measured pEC50, listed per entry for reference.
When answering, recall that pEC50 equals minus log10 of the concentration in mol/L, and write that number alone.

These solved cases illustrate the format of a correct answer.
> print(dat)
                                   compound  resultnumber
1  CCN(CC)CCCC(C)Nc1ccnc2cc(Cl)ccc12 (stereo not given)          7.64
2  CCC[C@@]1(CCc2ccccc2)CC(O)=C([C@H](CC)c2cccc(NS(=O)(=O)c3ccc(C(F)(F)F)cn3)c2)C(=O)O1          4.92
3  CC(C)c1nc(CN(C)C(=O)N[C@H](C(=O)N[C@@H](Cc2ccccc2)C[C@H](O)[C@H](Cc2ccccc2)NC(=O)OCc2cncs2)C(C)C)cs1          5.52
4  Cc1cccc(C)c1OCC(=O)N[C@@H](Cc1ccccc1)[C@@H](O)C[C@H](Cc1ccccc1)NC(=O)[C@H](C(C)C)N1CCCNC1=O          5.70

Query CC(C)(C)NC(=O)[C@@H]1C[C@@H]2CCCC[C@@H]2CN1C[C@@H](O)[C@H](Cc1ccccc1)NC(=O)[C@H](CC(N)=O)NC(=O)c1ccc2ccccc2n1 yields pEC50 of 5.52

====

# System: Plasmodium falciparum
# assayRemarks: Antimicrobial activity against Plasmodium falciparum harboring […]-tagged Pfs16 protein after 48 hrs
# Format: functional, organism-based
Measured EC50, listed per entry for reference.
Give a bare numeral; the unit nM is implied.

These solved cases illustrate the format of a correct answer.
> print(dat)
                                   compound  resultnumber
1  Cc1cccc(C)c1OCC(=O)N[C@@H](Cc1ccccc1)[C@@H](O)C[C@H](Cc1ccccc1)NC(=O)[C@H](C(C)C)N1CCCNC1=O [LOPINAVIR]          3000
2  CCC[C@@]1(CCc2ccccc2)CC(O)=C([C@H](CC)c2cccc(NS(=O)(=O)c3ccc(C(F)(F)F)cn3)c2)C(=O)O1         18000

Pending compound:
Query CCN(CC)CCCC(C)Nc1ccnc2cc(Cl)ccc12 (stereo not drawn) [CHLOROQUINE] yields EC50 of 23
